Assayed system: HLA-B*2705 expressed on C1R-neo cells (human, UniProt P01889 25-362; P61769 21-119)
Protocol description: ECL cell binding, C1R-neo B*2705 cells, pH 6.0; separate day
Measured property: max RLU (RLU)
Note: unit RLU is implicit; provide only the numeric part.

Guide cases for max RLU, answers given:
# Binder, Measured property, Numeric result
data = [
    ("H4H2499N2 (antibody, V domains shown) VH: QVQLVESGGGLVKPGGSLRLSCAASGFTFSDHYMSWIRQAPGKGLEWVSYISTSGSTIYYPDSVKGRFTISRDNAKNSLNLQMNSLRAEDTAVYYCLLHYYYGMDVWGQGTTVTVSS VL: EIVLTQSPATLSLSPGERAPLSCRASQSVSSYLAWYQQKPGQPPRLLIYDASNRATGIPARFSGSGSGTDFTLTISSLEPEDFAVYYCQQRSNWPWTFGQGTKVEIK", "max RLU", 24100),
    ("H4H2499N22 (antibody, V domains shown) VH: QVQLVESGGGLVKPGGSLRLSCAASGFTFSDYYMSWIRQAPGKGLEWVSYISTSGSTIYYPDSVKGRFTISRDNAKNSLNLQMNSLRAEDTAVYYCLLHHYYGHDHWGQGTTVTVSS VL: EIVLTQSPATLSLSPGERAPLSCRASQSVSSYLAWYQQKPGQPPRLLIYDASNRATGIPARFSGSGSGTDFTLTISSLEPEDFAVYYCQQRHHWPWHFGQGTKVEIK", "max RLU", 32800),
]

Next up:
Inquiry: Specify max RLU for H4H2499N17 (antibody, V domains shown) VH: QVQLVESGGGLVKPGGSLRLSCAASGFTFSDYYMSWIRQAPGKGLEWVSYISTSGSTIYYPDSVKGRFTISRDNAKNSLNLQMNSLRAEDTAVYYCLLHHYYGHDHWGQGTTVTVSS VL: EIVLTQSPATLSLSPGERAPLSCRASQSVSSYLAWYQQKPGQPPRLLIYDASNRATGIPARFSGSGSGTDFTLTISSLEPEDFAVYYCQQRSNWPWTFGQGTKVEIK and stop.
Reply text: 21600
